Measured OD 405 nm of individual entries
Target: T1, TgSlyDcys-Her3
T1 chain: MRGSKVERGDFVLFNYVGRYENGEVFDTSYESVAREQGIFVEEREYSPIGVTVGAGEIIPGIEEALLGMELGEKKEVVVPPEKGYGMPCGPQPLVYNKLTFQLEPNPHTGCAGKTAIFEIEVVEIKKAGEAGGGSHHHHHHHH
Experiment: ELISA, antigen coated, hybridoma supernatant
parameter measured: OD 405 nm (OD)

binder: anti-HER3 antibody M-17-12 (antibody, V domains shown, mouse hybridoma clone; VH and VL stated identical to those of M-17-02) VH: EVQLQQSGTVLARPGASVKMSCKASGYSFTSYWIHWVKQRPGQGLEWIGAIYPGNSDTTYNQKFKGKAKLTAVTSASTAYMELSSLTNEDSAVYYCARTGVWTSYYFDYWGQGTTLTVSS VL: DIQMTQSPASLSASVGETVTITCRASENIYSNLAWYQQKQGKSPQLLVYAATNLADGVPSRFSGSGSGTQFSLRINSLQPEDFGSYYCQHFYGTPFTFGTGTKLEIK
parameter measured: OD 405 nm
data value: 1.37
//
binder: anti-HER3 antibody M-17-02 (antibody, V domains shown, mouse hybridoma clone) VH: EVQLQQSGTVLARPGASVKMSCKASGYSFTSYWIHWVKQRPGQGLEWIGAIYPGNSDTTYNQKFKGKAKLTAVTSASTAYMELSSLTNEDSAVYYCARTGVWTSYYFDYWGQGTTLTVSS VL: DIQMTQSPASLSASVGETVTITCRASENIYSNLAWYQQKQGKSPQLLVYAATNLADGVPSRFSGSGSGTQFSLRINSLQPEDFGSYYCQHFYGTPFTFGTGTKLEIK
parameter measured: OD 405 nm
data value: 1.53
